Numbers sourced from patent US8741906B2.

# testedSystem: human CB2 receptors (Homo sapiens, UniProt P34972)
# Construct: expressed in transfected cells; host or cells: CHO cells
# Sequence (P34972 whole entry): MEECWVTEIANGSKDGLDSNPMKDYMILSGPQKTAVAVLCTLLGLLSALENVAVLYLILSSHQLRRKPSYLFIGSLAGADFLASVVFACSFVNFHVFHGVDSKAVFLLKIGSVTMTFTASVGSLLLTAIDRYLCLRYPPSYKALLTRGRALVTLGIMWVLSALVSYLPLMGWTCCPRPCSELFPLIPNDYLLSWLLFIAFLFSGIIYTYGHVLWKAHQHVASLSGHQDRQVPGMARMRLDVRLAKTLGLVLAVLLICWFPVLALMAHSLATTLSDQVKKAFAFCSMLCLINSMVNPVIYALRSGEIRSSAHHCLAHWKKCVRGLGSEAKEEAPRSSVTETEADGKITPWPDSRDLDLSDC
# measurementDescription: functional cAMP assay, human CB2
# Format: cell-based
The following compounds are shown together with reported EC50 values.
Record the value in nM, omitting the unit from your answer.

Please review the entries below; each comes with its answer.
Cn1nnnc1Cn1nnc2c(N3CC[C@H](O)C3)nc(C(C)(C)C)nc21: 1.4
CC(C)(C)c1nc(N2CC2)c2nnn(Cc3ccccc3Cl)c2n1: 36.5
Cn1nnnc1Cn1nnc2c(N3CC[C@@H](O)C3)nc(C(C)(C)C)nc21: 32.9

Find the recorded EC50 belonging to Cn1nnnc1Cn1nnc2c(N3CCC(O)C3)nc(C(C)(C)C)nc21 (stereo not shown) and report it. 4.7

###

The following compounds are shown together with reported EC50 values.
# testedSystem: human CB1 receptors (Homo sapiens)
# Construct: expressed in transfected cells; host or cells: CHO cells
# Sequence (P21554 whole entry): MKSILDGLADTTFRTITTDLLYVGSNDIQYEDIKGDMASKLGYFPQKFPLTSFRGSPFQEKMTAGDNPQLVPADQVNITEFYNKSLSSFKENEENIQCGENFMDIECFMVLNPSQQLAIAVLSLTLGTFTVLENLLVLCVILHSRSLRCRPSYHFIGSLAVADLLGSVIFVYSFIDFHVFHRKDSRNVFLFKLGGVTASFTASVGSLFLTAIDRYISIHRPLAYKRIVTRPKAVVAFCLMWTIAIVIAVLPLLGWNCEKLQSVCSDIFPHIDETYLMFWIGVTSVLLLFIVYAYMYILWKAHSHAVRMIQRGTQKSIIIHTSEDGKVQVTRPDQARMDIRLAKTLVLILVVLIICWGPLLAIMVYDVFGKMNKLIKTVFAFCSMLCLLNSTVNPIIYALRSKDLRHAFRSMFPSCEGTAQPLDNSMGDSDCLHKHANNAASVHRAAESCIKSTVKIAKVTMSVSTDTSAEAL
# measurementDescription: functional cAMP assay, human CB1
# Assay type: cell-based
# conditions: CHO cells expressing human CB1, cAMP; read-out: human CB1 EC50

CC(C)(C)c1nc(N2CCC(F)(F)C2)c2nnn(CC(=O)c3cccc(Cl)c3)c2n1: > 10000 nM
CC(C)(C)c1nc(N2CCOCC2)c2nnn(Cc3ccc(F)cc3Cl)c2n1: > 10000 nM
Cc1noc(Cn2nnc3c(N4CC5(COC5)C4)nc(C(C)(C)C)nc32)n1: > 10000 nM
Cn1nnnc1Cn1nnc2c(N3CC[C@](C)(O)C3)nc(C(C)(C)C)nc21: > 10000 nM

Find the recorded EC50 belonging to "CC(C)(C)c1nc(N2CC(F)(F)C[C@@H]2CO)c2nnn(Cc3ccccc3Cl)c2n1" and report it. > 10000 nM

Find the recorded EC50 belonging to "CC(C)(C)c1nc(N2CCC(=O)C2)c2nnn(Cc3ccccc3Cl)c2n1" and report it. > 10000 nM

Find the recorded EC50 belonging to "CC(C)(C)c1nc(N2CCC(F)(F)C2)c2nnn(Cc3c(C(F)(F)F)ccc(Cl)c3Cl)c2n1" and report it. 306 nM

Find the recorded EC50 belonging to "Cc1nc(Cn2nnc3c(N4CCC(F)(F)C4)nc(C(C)(C)C)nc32)n(C)n1" and report it. > 10000 nM

Find the recorded EC50 belonging to "CC(C)(C)c1nc(N2CCCC2)c2nnn(Cc3ccccc3Cl)c2n1" and report it. 632 nM

Find the recorded EC50 belonging to "CC(C)(C)c1nc(N2CC[C@H](O)C2)c2nnn(Cc3cccnc3Cl)c2n1" and report it. > 10000 nM

Find the recorded EC50 belonging to "CN(C)c1c(Cl)cncc1Cn1nnc2c(N3CCC(F)(F)C3)nc(C(C)(C)C)nc21" and report it. 234 nM

Find the recorded EC50 belonging to "CC(C)(C)c1nc(N2CC[C@H](O)[C@@H]2CO)c2nnn(Cc3ccccc3S(C)(=O)=O)c2n1" and report it. > 10000 nM

Find the recorded EC50 belonging to "CC(C)(C)c1nc(N2CCC(F)(F)C2)c2nnn(Cc3ccccc3OC(F)(F)F)c2n1" and report it. 252 nM

###

# testedSystem: human CB1 receptors (Homo sapiens)
# Construct: expressed in transfected cells; host or cells: CHO cells
# measurementDescription: functional cAMP assay, human CB1
# Format: cell-based
The following molecules are shown together with reported EC50 values.

Cn1nnnc1Cn1nnc2c(N3CCC(O)C3)nc(C(C)(C)C)nc21 (centres unmarked): > 10 µM
Cn1ncnc1Cn1nnc2c(N3CC[C@H](O)[C@@H]3CO)nc(C(C)(C)C)nc21: > 10 µM
CC(C)(C)c1nc(N2CC2)c2nnn(Cc3ccccc3Cl)c2n1: 1.22 µM
Cn1nnnc1Cn1nnc2c(N3CC[C@H](O)C3)nc(C(C)(C)C)nc21: > 10 µM

Next molecule, please.
Find the recorded EC50 belonging to "Cn1nnnc1Cn1nnc2c(N3CC[C@@H](O)C3)nc(C(C)(C)C)nc21" and report it. > 10 µM
